assay: Solubility in H2O, SGF and FaSSIF; format: physicochemical; details: water, pH 7.3, water, H2O (pH = 7.3); read-out: Solubility
experimental-endpoint: solubility (µg/mL)
Give bare numbers, in µg/mL.

Dear colleague, I am looking for the recorded solubility of the following compound: CS[C@@]1(C(=O)Nc2ccc3[nH]nc(-c4ccc(OC(C)C)nc4)c3c2)CCN(CC(=O)N2CC=C(c3ccc(-c4ncn(C)n4)cc3)CC2)C1 [MK-A free base]
0.3

---

experiment: Solubility in H2O, SGF and FaSSIF; assay type: physicochemical; conditions: water, pH 3.5, water, H2O (pH = 3.5); read-out: Solubility
Counter-ions that a name gives are not always drawn.
experimental-endpoint: solubility (µg/mL)
Numbers only, in µg/mL.

Dear colleague, I am looking for the recorded solubility of the following compound: CS[C@@]1(C(=O)Nc2ccc3[nH]nc(-c4ccc(OC(C)C)nc4)c3c2)CCN(CC(=O)N2CC=C(c3ccc(-c4ncn(C)n4)cc3)CC2)C1 [MK-A HCl salt]
661
